Reported Ki values are given for each entry in this list.
Target: Sigma intracellular receptor 2 (Rattus norvegicus, UniProt Q5U3Y7)
Sequence (Q5U3Y7 whole entry): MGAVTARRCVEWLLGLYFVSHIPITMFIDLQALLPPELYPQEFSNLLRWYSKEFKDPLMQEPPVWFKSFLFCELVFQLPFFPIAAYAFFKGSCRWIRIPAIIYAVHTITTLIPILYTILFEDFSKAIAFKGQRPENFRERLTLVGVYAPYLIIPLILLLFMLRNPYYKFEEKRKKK
Assay: Displacement of [3H]DTG from sigma-2 receptor in Sprague-Dawley rat liver membranes after 120 mins in presence of (+)-pentazocine by microbeta scintillation counting method
test-readout: Ki (nM)

>>> readout_number("COc1ccc(C(O)CCN2CCc3cc(OC)c(OC)cc3C2)c(OC)c1 (stereo unspecified)")
30.2
>>> readout_number("COc1ccc(C(=O)CCN2CCc3cc(OC)c(OC)cc3C2)c(OC)c1")
68.1
>>> readout_number("COc1ccc(C(O)CCCCN2CCc3cc(OC)c(OC)cc3C2)c(OC)c1 (stereo unspecified)")
6.2
>>> readout_number("COc1ccc(C(O)CCCCN2CCc3cc(OC)c(OC)cc3C2)c(C)c1 (stereo unspecified)")
5.2
>>> readout_number("COc1ccc(C(=O)CN2CCc3cc(OC)c(OC)cc3C2)c(OC)c1")
53.8
>>> readout_number("COc1cc2c(cc1OC)CN(CCCn1cnc3cc(OC)c(OC)cc3c1=O)CC2")
13.9
>>> readout_number("COc1ccc(C(O)CN2CCc3cc(OC)c(OC)cc3C2)c(OC)c1 (stereo unspecified)")
62
>>> readout_number("COc1cc2c(cc1OC)CN(CCCCn1cnc3cc(OC)c(OC)cc3c1=O)CC2")
43.8
>>> readout_number("COc1ccc(C(=O)CCCCN2CCc3cc(OC)c(OC)cc3C2)c(OC)c1")
5.8
>>> readout_number("COc1ccc(C(=O)CCN2CCc3cc(OC)c(OC)cc3C2)c(C)c1")
23.7
>>> readout_number("COc1ccc(C(=O)CCCCN2CCc3cc(OC)c(OC)cc3C2)c(C)c1")
5.1
>>> readout_number("COc1ccc(C(O)CCN2CCc3cc(OC)c(OC)cc3C2)c(C)c1 (stereo unspecified)")
18.2
